assay: Inhibition of Dvl mediated Wnt3a/TCF signaling in human HEK293S cells after 18 hrs by TOPglow reporter assay
ENDPOINT LABEL: IC50

Note to self: IC50 recorded for CCCCC(O)c1[nH]c2cc(C)c(C(=O)O)cc2c1CCc1ccccc1 (stereo unspecified) was > 100 µM
